Values compiled from ChEMBL document CHEMBL1156829.

test: NOVARTIS: Cytotoxicity against human hepatocellular carcinoma cell line (Huh7); format: toxicity, cell-based, Huh-7; details: Huh7 cells (hepatocellular carcinoma cell line)
Measured metric: CC50

Consider the worked cases shown below.
c1ccc2c(NCCc3c[nH]cn3)c3ccccc3nc2c1    23.3 µM
O=C(/C=C/c1ccccc1)c1c(-c2ccccc2)c2cc([N+](=O)[O-])ccc2[nH]c1=O    > 10 µM

State recorded CC50 for all listed molecules.
1. CCN(CC)CCCNc1ccnc2cc3ccccc3cc12
2. Cc1ccc(Cl)cc1N1C(=O)[C@@H]2[C@H](C1=O)C1c3ccccc3C=CN1[C@@H]2C(=O)c1cccs1 (stereo partly drawn)

-- reply
1. 26.2 µM
2. > 10 µM
